Recorded IC50, one value per entry.
Tested on: PC3 cells
assayNotes: PC3 prostate cancer cell proliferation (WST)
Format: cell-based
conditionSet: Homo sapiens, PC-3; 72 hours; read-out: IC50 PC3 Proliferation
Answer with a number only, understood to be in µM.

{"compound": "O=c1cc(N2CCOCC2)oc2c(C#Cc3cccc(F)c3)csc12 [Compound 39]", "assayTarget": "PC3 cells", "IC50 / µM": 3.31}

Value of measured IC50 for the entry O=c1cc(N2CCOCC2)oc2c(-c3cc4ccccc4[nH]3)csc12 [Compound 12] : 8.55

----------
Recorded IC50, one value per entry.
System: PC3 cells
assayNotes: PC3 prostate cancer cell proliferation (WST)
Type: cell-based
conditionSet: Homo sapiens, PC-3; 72 hours; read-out: IC50 PC3 Proliferation
Answer with a number only, understood to be in µM.

Example results:
{"smilesRepresentation": "CN(C)c1ccc(C#Cc2csc3c(=O)cc(N4CCOCC4)oc23)cc1", "IC50 (µM)": 2.5}
{"smilesRepresentation": "Cc1cccc(-c2csc3c(=O)cc(N4CCOCC4)oc23)c1", "IC50 (µM)": 6.03}
{"smilesRepresentation": "COC(=O)c1ccc(-c2csc3c(=O)cc(N4CCOCC4)oc23)cc1", "IC50 (µM)": 4.39}
{"smilesRepresentation": "O=c1cc(N2CCOCC2)oc2c(-c3ccc(Cl)cc3)csc12", "IC50 (µM)": 29}

Then this molecule:
The reported PC3 cells IC50 of O=C(Nc1ccncc1)c1ccc(-c2csc3c(=O)cc(N4CCOCC4)oc23)cc1 is 17.5
